Consider the following binders; for each one, report its pKd.
# test_target: His-flXPA-StrepII (human, UniProt P23025 1-273)
# Sequence (P23025 whole entry): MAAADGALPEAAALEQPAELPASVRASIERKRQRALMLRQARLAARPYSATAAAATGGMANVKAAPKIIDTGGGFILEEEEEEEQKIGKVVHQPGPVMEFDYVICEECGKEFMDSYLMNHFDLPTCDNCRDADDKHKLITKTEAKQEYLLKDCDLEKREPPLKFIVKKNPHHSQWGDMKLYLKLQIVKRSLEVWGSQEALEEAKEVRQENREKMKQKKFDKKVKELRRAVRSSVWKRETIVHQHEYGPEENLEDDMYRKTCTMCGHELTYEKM
# measurement_notes: EMSA; EMSA: 8 nM DNA, 20 mM HEPES pH 7.5, 150 mM NaCl, 5 mM DTT, 0.5 mg/ml BSA, 5% glycerol, 25 min at room temperature; gel 5% native, 0.5x TBE, 4 C. AFM: 100 nM DNA, 1-4 uM XPA (ND538)
# run_conditions: protein: recombinant, tags: N-terminal His, label: 5'-6FAM on bottom strand, blunt
One number for each entry, as −log10 of the molar value.

- binder: "AAF37 (dsDNA, dG-C8-AAF at G14 of top strand; 5'-phosphate top strand) DNA 1: CCGAGTCATTCCTGCAGCGAGTCCATGGGAGTCAAAT DNA 2: ATTTGACTCCCATGGACTCGCTGCAGGAATGACTCGG"
  pKd: 6.96

Now take the following binder into account.
Lookup: What does the data say about its pKd? Entry: ND37 (dsDNA, 5'-phosphate top strand) DNA 1: CCGAGTCATTCCTGCAGCGAGTCCATGGGAGTCAAAT DNA 2: ATTTGACTCCCATGGACTCGCTGCAGGAATGACTCGG
Found: 6.60
